system: Jurkat cells; assay: Jurkat toxicity: Cell Titer Glo assay; format: cell-based; details: Homo sapiens, 18 hours
// values below are reported IC50

Let me check: `OCCOc1cccc(Nc2ncc(F)c(Nc3cccc(OCCO)c3)n2)c1` , system Jurkat cells, measured IC50 is > 4.33 µM

Let me check: `OCCOc1cccc(Nc2ncc(F)c(Nc3ccc4c(c3)OCCO4)n2)c1` , system Jurkat cells, measured IC50 is > 4.33 µM

Let me check: `Cc1cc(Nc2ncc(F)c(Nc3cccc(O)c3)n2)cc(Cl)c1O` , system Jurkat cells, measured IC50 is > 4.33 µM
